- EXPERIMENTAL TARGET: CDK7 CyclinH (Homo sapiens)
- Sequence (P50613 whole entry): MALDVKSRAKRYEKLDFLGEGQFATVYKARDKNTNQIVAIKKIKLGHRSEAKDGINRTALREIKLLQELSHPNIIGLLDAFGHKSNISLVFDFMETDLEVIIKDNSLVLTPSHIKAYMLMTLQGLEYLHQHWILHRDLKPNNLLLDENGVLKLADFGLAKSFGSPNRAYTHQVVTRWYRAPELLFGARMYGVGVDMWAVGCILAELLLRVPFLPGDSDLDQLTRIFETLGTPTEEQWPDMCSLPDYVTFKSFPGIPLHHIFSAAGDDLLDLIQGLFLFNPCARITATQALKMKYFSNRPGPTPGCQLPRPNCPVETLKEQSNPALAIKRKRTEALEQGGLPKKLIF
- Sequence (P51946 whole entry partner): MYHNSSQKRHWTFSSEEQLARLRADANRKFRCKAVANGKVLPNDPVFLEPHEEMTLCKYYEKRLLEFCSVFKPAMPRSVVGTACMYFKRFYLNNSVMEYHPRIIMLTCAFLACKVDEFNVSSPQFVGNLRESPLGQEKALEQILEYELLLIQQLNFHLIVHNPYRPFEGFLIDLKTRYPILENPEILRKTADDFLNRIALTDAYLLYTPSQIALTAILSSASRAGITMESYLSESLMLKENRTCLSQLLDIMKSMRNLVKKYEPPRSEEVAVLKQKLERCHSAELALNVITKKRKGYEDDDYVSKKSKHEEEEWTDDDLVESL
- Sequence (P51948 whole entry partner): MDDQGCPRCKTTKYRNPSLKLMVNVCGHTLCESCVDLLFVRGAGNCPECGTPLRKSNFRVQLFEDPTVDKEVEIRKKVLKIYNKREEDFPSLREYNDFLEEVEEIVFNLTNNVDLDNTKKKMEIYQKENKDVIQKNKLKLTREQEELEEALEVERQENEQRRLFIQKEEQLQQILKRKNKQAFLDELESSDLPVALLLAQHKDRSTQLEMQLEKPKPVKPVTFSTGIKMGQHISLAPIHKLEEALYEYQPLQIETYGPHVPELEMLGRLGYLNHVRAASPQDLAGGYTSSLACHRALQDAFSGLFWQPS
- PROTOCOL SUMMARY: CDK inhibition assay (microfluidic LabChip, IC50 format)
- Format: biochemical
- SETTINGS: Table 4b, lower part
ENDPOINT NAME: pIC50
By convention, pIC50 is the negative base-10 log of a molar concentration.

{"MOLECULE": "CN1CC2(C1)CN(c1ccc(Nc3ncc4c(n3)N(C3CCCC3)C(=O)[C@]3(CCNC3=O)C4)cc1F)C2", "EXPERIMENTAL TARGET": "CDK7 CyclinH (Homo sapiens)", "pIC50": 6.79}
{"MOLECULE": "O=C1NCC[C@@]12Cc1cnc(Nc3ccc(N4CCN(CCO)CC4)c(F)c3)nc1N(C13CC(C1)C3)C2=O", "EXPERIMENTAL TARGET": "CDK7 CyclinH (Homo sapiens)", "pIC50": 5.91}

Any idea what its pIC50 is? The molecule is `O=C1NCC[C@@]12Cc1cnc(Nc3ccc(N4CCC(N5CCOCC5)CC4)cc3)nc1N(C1CCCC1)C2=O`
6.23

Now consider `CC(C)N1CCC(Nc2ncc3c(n2)N(C2CCCC2)C(=O)[C@]2(CCNC2=O)C3)CC1` .
6.25

Param item: `CN1CCN(c2ccc(Nc3ncc4c(n3)N(C35CC(C3)C5)C(=O)[C@]3(CCNC3=O)C4)cc2)CC1`
5.63

Ok, now `O=C1NCC[C@@]12Cc1cnc(Nc3ccc(N4CCN(CCO)CC4)c(F)c3)nc1N(C1CCCC1)C2=O`
6.95

Next molecule: CN1CCN(c2ccc(Nc3ncc4c(n3)N(C35CC(C3)C5)C(=O)C3(CCNC3=O)C4)cc2F)CC1 (stereo not shown)
5.63

Queued: `CS(=O)(=O)N1CCC(Nc2ncc3c(n2)N(C24CC(C2)C4)C(=O)[C@]2(CCNC2=O)C3)CC1`
6.06

Again, but for `CS(=O)(=O)c1ccc(Nc2ncc3c(n2)N(C2CCCC2)C(=O)[C@]2(CCNC2=O)C3)cc1`
5.78

Okay, and `CC(C)N1CC2(CN(c3ccc(Nc4ncc5c(n4)N(C4CCCC4)C(=O)[C@]4(CCNC4=O)C5)cc3)C2)C1` ?
6.19

What do you have for CC1CN(c2ccc(Nc3ncc4c(n3)N(C35CC(C3)C5)C(=O)[C@]3(CCNC3=O)C4)cc2)CC(C)N1 (stereo partly shown) ?
5.42

// repeat for `O=C1NCC[C@@]12Cc1cnc(Nc3ccc(OCCO)cc3)nc1N(C1CCCC1)C2=O` and report
5.46

Okay, and `CN1CCN(c2ccc(Nc3ncc4c(n3)N(C35CC(C3)C5)C(=O)[C@]3(CCNC3=O)C4)cc2F)CC1` ?
5.93

Similarly, `CC(C)C1CCN(c2ccc(Nc3ncc4c(n3)N(C3CCCC3)C(=O)[C@]3(CCNC3=O)C4)cc2)CC1` ?
5.53

Please answer likewise for `CS(=O)(=O)N1CCC(Nc2ncc3c(n2)N(C2CCCC2)C(=O)[C@]2(CCNC2=O)C3)CC1`
6.67

* * *

- EXPERIMENTAL TARGET: CDK2-CYCLINA (Homo sapiens, UniProt P24941)
- Construct: purchased Millipore
- PROTOCOL SUMMARY: CDK inhibition assay (microfluidic LabChip, IC50 format)
- Assay type: biochemical
- SETTINGS: Table 4a; read-out: CDK2 CyclinA IC50
pIC50: −log10 of the molar value.
Quick rule: pIC50 of at least 6 means criterion met, below that means criterion not met.

{"MOL SMILES": "CC(C)n1cc(-c2ccc(Nc3ncc4c(n3)N(C3CCCC3)C(=O)[C@]3(CCNC3=O)C4)nc2)cn1", "CLASS NAME": "criterion not met"}
{"MOL SMILES": "O=C1NCC[C@@]12Cc1cnc(Nc3ccc(N4CC5(CNC5)C4)cc3)nc1N(C1CCCC1)C2=O", "CLASS NAME": "criterion met"}
{"MOL SMILES": "COc1cc(N2CCN(C)CC2)ccc1Nc1ncc2c(n1)N(C1CCCC1)C(=O)[C@]1(CCNC1=O)C2", "CLASS NAME": "criterion not met"}

Switching to the query record.
Check if pIC50 >= 6 (inclusive). Item: `O=C1NCC[C@@]12Cc1cnc(Nc3ccc(N4CCNCC4)nc3)nc1N(C1CCCC1)C2=O`
criterion met

The values you see were collected from patent US20230048132A1.
